- ASSAYED SYSTEM: Recombinant his-tagged HA1 from H7N7 strain A/Chicken/Netherlands/01/03 (Abcam Cat. No. ab61286) (Influenza A virus A/Chicken/Netherlands/01/03 (H7N7))
TEST READOUT: ELISA titer (NANOBODY concentration giving extinction 1) (ng/mL)
Return type: number; implicit unit ng/mL.

I am curious: what ELISA titer (NANOBODY concentration giving extinction 1) value has been reported for IV26 (yeast-produced NANOBODY (VHH sequence)) (VHH) VHH: QVQLQESGGGLVRTGDSLRLSCAASGRTFNGYAMAWFRQAPGKGREFVAAVTWSSGTTNYAGSVKDRFTVSRDNANNTMYLQMNSLKPEDTAVYICGAASGYRSTDRLSDPAWTNYWGQGTQVTVSS ?
80.6

Subsequent entry: IV21 (yeast-produced NANOBODY (VHH sequence)) (VHH) VHH: QVQLQQSGGGLVQAGGFLRLSCAASGRSFNTYAMGWFRQAPGKEREFVAGITRSGTATDYIDSVKGRFTISRDNARDTVYLQMNRLNPEDSAVYYCAAHANYDRMINSEYKYWGQGTQVTVSS
69

Another binder: IV29 (yeast-produced NANOBODY (VHH sequence)) (VHH) VHH: QVQLQESGGGLVQAGGSLRLSCVASGRTLDNYAMGWFRQAPGAEREFVGAISANGEDTQYTESVQGRFTISKDNAKSTVYLDMNSLKPEDTAVYYCAADRKTLTYYTSRLRSRYEYWGQGTQVTVSS
7.2

Continue with IV1 (yeast-produced NANOBODY (VHH sequence)) (VHH) VHH: QVQLQESGGGLVETGGSLRLSCAASGRTFGGYALAWFRQAPGKGREFVAAVTWTSGTTNYAGSVKDRFTVSRDNAGNTMYLQMNSLRPEDTAVYICGAASGYRSPDRLSEPNWVNYWGQGTQVTVSS
62.2
